# assay text: phase I clinical plasma pharmacokinetics (noncompartmental); Reg 1: 3qw continuous; Reg 3: 3qw 2 weeks on/1 week off
# Type: in vivo, human
# conditions: human, plasma, oral, 700 mg, 700 mg Reg.3, Cycle 1 Day 1, n 5, Tlast=24h; read-out: AUClast, Mean (SD)
# Experimental: Antitumor efficacy was assessed using computerised tomography (CT)/magnetic resonance imaging assessment at baseline and every 8 weeks until disease progression or the initiation of subsequent antineoplastic therapy or death, whichever occurred first. In addition, the criteria for determining confirmed partial response (PR) or complete response (CR) were required to be present for at least 4 weeks. […]
readout name: AUC(0-t) (ng·h/mL)
Use ng·h/mL as the unit, but write only the number.

Name the recorded AUC(0-t) for COc1cc2c(cc1OC(C)C)[C@H](c1ccc(Cl)cc1)N(c1ccc(N(C)C[C@H]3CC[C@H](N4CCN(C)C(=O)C4)CC3)cc1)C(=O)C2 [CGM097] . 79100

###

# assay text: phase I clinical plasma pharmacokinetics (noncompartmental); Reg 1: 3qw continuous; Reg 3: 3qw 2 weeks on/1 week off
# Format: in vivo, human
# conditions: human, plasma, oral, 80 mg, 80 mg Reg.1, Cycle 1 Day 8, n 4, Tlast=8h; read-out: AUClast, Mean (SD)
readout name: AUC(0-t) (ng·h/mL)
Use ng·h/mL as the unit, but write only the number.

Name the recorded AUC(0-t) for COc1cc2c(cc1OC(C)C)[C@H](c1ccc(Cl)cc1)N(c1ccc(N(C)C[C@H]3CC[C@H](N4CCN(C)C(=O)C4)CC3)cc1)C(=O)C2 . 12600

###

# assay text: phase I clinical plasma pharmacokinetics (noncompartmental); Reg 1: 3qw continuous; Reg 3: 3qw 2 weeks on/1 week off
# Assay type: in vivo, human
# conditions: human, plasma, oral, 40 mg, 40 mg Reg.1, Cycle 2 Day 1, n 3, Tlast=8h; read-out: AUClast, Mean (SD)
readout name: AUC(0-t) (ng·h/mL)
Use ng·h/mL as the unit, but write only the number.

Name the recorded AUC(0-t) for COc1cc2c(cc1OC(C)C)[C@H](c1ccc(Cl)cc1)N(c1ccc(N(C)C[C@H]3CC[C@H](N4CCN(C)C(=O)C4)CC3)cc1)C(=O)C2 . 4410

###

# assay text: phase I clinical plasma pharmacokinetics (noncompartmental); Reg 1: 3qw continuous; Reg 3: 3qw 2 weeks on/1 week off
# Assay type: in vivo, human
# conditions: human, plasma, oral, 40 mg, 40 mg Reg.1, Cycle 1 Day 1, n 4, Tlast=24h; read-out: AUClast, Mean (SD)
readout name: AUC(0-t) (ng·h/mL)
Use ng·h/mL as the unit, but write only the number.

Name the recorded AUC(0-t) for COc1cc2c(cc1OC(C)C)[C@H](c1ccc(Cl)cc1)N(c1ccc(N(C)C[C@H]3CC[C@H](N4CCN(C)C(=O)C4)CC3)cc1)C(=O)C2 [CGM097] . 8640

###

# assay text: phase I clinical plasma pharmacokinetics (noncompartmental); Reg 1: 3qw continuous; Reg 3: 3qw 2 weeks on/1 week off
# Format: in vivo, human
# conditions: human, plasma, oral, 150 mg, 150 mg Reg.1, Cycle 1 Day 1, n 4, Tlast=24h; read-out: AUClast, Mean (SD)
readout name: AUC(0-t) (ng·h/mL)
Use ng·h/mL as the unit, but write only the number.

Name the recorded AUC(0-t) for COc1cc2c(cc1OC(C)C)[C@H](c1ccc(Cl)cc1)N(c1ccc(N(C)C[C@H]3CC[C@H](N4CCN(C)C(=O)C4)CC3)cc1)C(=O)C2 [CGM097] . 28400

###

# assay text: phase I clinical plasma pharmacokinetics (noncompartmental); Reg 1: 3qw continuous; Reg 3: 3qw 2 weeks on/1 week off
# Assay type: in vivo, human
# conditions: human, plasma, oral, 400 mg, 400 mg Reg.1, Cycle 2 Day 1, n 5, Tlast=8h; read-out: AUClast, Mean (SD)
readout name: AUC(0-t) (ng·h/mL)
Use ng·h/mL as the unit, but write only the number.

Name the recorded AUC(0-t) for COc1cc2c(cc1OC(C)C)[C@H](c1ccc(Cl)cc1)N(c1ccc(N(C)C[C@H]3CC[C@H](N4CCN(C)C(=O)C4)CC3)cc1)C(=O)C2 [CGM097] . 46800

###

# assay text: phase I clinical plasma pharmacokinetics (noncompartmental); Reg 1: 3qw continuous; Reg 3: 3qw 2 weeks on/1 week off
# Assay type: in vivo, human
# conditions: human, plasma, oral, 300 mg, 300 mg Reg.3, Cycle 1 Day 12, n 6; read-out: Cmax, Mean (SD)
# Procedure: Antitumor efficacy was assessed using computerised tomography (CT)/magnetic resonance imaging assessment at baseline and every 8 weeks until disease progression or the initiation of subsequent antineoplastic therapy or death, whichever occurred first. In addition, the criteria for determining confirmed partial response (PR) or complete response (CR) were required to be present for at least 4 weeks. […]
readout name: Cmax (ng/mL)
Use ng/mL as the unit, but write only the number.

Name the recorded Cmax for COc1cc2c(cc1OC(C)C)[C@H](c1ccc(Cl)cc1)N(c1ccc(N(C)C[C@H]3CC[C@H](N4CCN(C)C(=O)C4)CC3)cc1)C(=O)C2 . 4380

###

# assay text: phase I clinical plasma pharmacokinetics (noncompartmental); Reg 1: 3qw continuous; Reg 3: 3qw 2 weeks on/1 week off
# Type: in vivo, human
# conditions: human, plasma, oral, 700 mg, 700 mg Reg.3, Cycle 1 Day 12, n 2; read-out: AUClast, Mean (SD)
# Procedure: Antitumor efficacy was assessed using computerised tomography (CT)/magnetic resonance imaging assessment at baseline and every 8 weeks until disease progression or the initiation of subsequent antineoplastic therapy or death, whichever occurred first. In addition, the criteria for determining confirmed partial response (PR) or complete response (CR) were required to be present for at least 4 weeks. […]
readout name: AUC(0-t) (µg·h/mL)
Use µg·h/mL as the unit, but write only the number.

Name the recorded AUC(0-t) for COc1cc2c(cc1OC(C)C)[C@H](c1ccc(Cl)cc1)N(c1ccc(N(C)C[C@H]3CC[C@H](N4CCN(C)C(=O)C4)CC3)cc1)C(=O)C2 . 237

###

# assay text: phase I clinical plasma pharmacokinetics (noncompartmental); Reg 1: 3qw continuous; Reg 3: 3qw 2 weeks on/1 week off
# Assay type: in vivo, human
# conditions: human, plasma, oral, 300 mg, 300 mg Reg.3, Cycle 2 Day 1, n 4, Tlast=8h; read-out: AUClast, Mean (SD)
readout name: AUC(0-t) (ng·h/mL)
Use ng·h/mL as the unit, but write only the number.

Name the recorded AUC(0-t) for COc1cc2c(cc1OC(C)C)[C@H](c1ccc(Cl)cc1)N(c1ccc(N(C)C[C@H]3CC[C@H](N4CCN(C)C(=O)C4)CC3)cc1)C(=O)C2 . 16400

###

# assay text: in vitro
# Format: in vitro ADME
# conditions: mouse, plasma, unbound fraction in plasma
readout name: fraction unbound
Please state the value as a number alone, without comment.

Name the recorded fraction unbound for COc1cc2c(cc1OC(C)C)[C@H](c1ccc(Cl)cc1)N(c1ccc(N(C)C[C@H]3CC[C@H](N4CCN(C)C(=O)C4)CC3)cc1)C(=O)C2 . 0.00193

###

# assay text: in vitro
# Assay type: in vitro ADME
# conditions: mouse, plasma, plasma protein binding
readout name: fraction unbound

Name the recorded fraction unbound for COc1cc2c(cc1OC(C)C)[C@H](c1ccc(Cl)cc1)N(c1ccc(N(C)C[C@H]3CC[C@H](N4CCN(C)C(=O)C4)CC3)cc1)C(=O)C2 [CGM097] . 0.002

###

# assay text: phase I clinical plasma pharmacokinetics (noncompartmental); Reg 1: 3qw continuous; Reg 3: 3qw 2 weeks on/1 week off
# Type: in vivo, human
# conditions: human, plasma, oral, 10 mg, 10 mg Reg.1, Cycle 1 Day 8, n 3; read-out: Cmax, Mean (SD)
readout name: Cmax (ng/mL)
Use ng/mL as the unit, but write only the number.

Name the recorded Cmax for COc1cc2c(cc1OC(C)C)[C@H](c1ccc(Cl)cc1)N(c1ccc(N(C)C[C@H]3CC[C@H](N4CCN(C)C(=O)C4)CC3)cc1)C(=O)C2 . 135

###

# assay text: phase I clinical plasma pharmacokinetics (noncompartmental); Reg 1: 3qw continuous; Reg 3: 3qw 2 weeks on/1 week off
# Assay type: in vivo, human
# conditions: human, plasma, oral, 400 mg, 400 mg Reg.1, Cycle 1 Day 8, n 3; read-out: Cmax, Mean (SD)
readout name: Cmax (ng/mL)
Use ng/mL as the unit, but write only the number.

Name the recorded Cmax for COc1cc2c(cc1OC(C)C)[C@H](c1ccc(Cl)cc1)N(c1ccc(N(C)C[C@H]3CC[C@H](N4CCN(C)C(=O)C4)CC3)cc1)C(=O)C2 . 6700

###

# assay text: phase I clinical plasma pharmacokinetics (noncompartmental); Reg 1: 3qw continuous; Reg 3: 3qw 2 weeks on/1 week off
# Type: in vivo, human
# conditions: human, plasma, oral, 80 mg, 80 mg Reg.1, Cycle 2 Day 1, n 3; read-out: Cmax, Mean (SD)
readout name: Cmax (ng/mL)
Use ng/mL as the unit, but write only the number.

Name the recorded Cmax for COc1cc2c(cc1OC(C)C)[C@H](c1ccc(Cl)cc1)N(c1ccc(N(C)C[C@H]3CC[C@H](N4CCN(C)C(=O)C4)CC3)cc1)C(=O)C2 . 2150
